Test system: 42-MG-BA (Glioblastoma)
Test: Bliss excess, mean over the matrix (fraction); higher = more synergy
QUANTITY_NAME: Bliss excess
Numbers only.

MOLECULE | EXPERIMENTAL_VALUE
C=CCn1c(=O)c2cnc(Nc3ccc(N4CCN(C)CC4)cc3)nc2n1-c1cccc(C(C)(C)O)n1 [AZD1775] + C[C@@H]1COCCN1C2=NC(=NC(=C2)C3(CC3)[S@](=N)(=O)C)C4=C5C=CNC5=NC=C4 [AZD6738] (first compound max 1 µM, partner max 10 µM) | 0.0384
CN(C)CCCOc1ccc(-c2ccc3ncc4c(c3c2)n(C2CCOCC2)c(=O)n4C)cn1 [AZD0156] + C=CCn1c(=O)c2cnc(Nc3ccc(N4CCN(C)CC4)cc3)nc2n1-c1cccc(C(C)(C)O)n1 [AZD1775] (first compound max 1 µM, partner max 1 µM) | 0.0275

List reported Bliss excess for each of these molecules:
1. CC(=O)c1c(C)c2cnc(Nc3ccc(N4CCNCC4)cn3)nc2n(C2CCCC2)c1=O [Palbociclib] + Cc1c2c(nn1C)CSCc1cc(n(C)n1)CSc1cc(c3ccccc3c1)OCCCc1c(C(=O)O)n(C)c3c-2c(Cl)ccc13 [AZD5991] (first compound max 10 µM, 7x7, partner max 1 µM)
2. C=CCn1c(=O)c2cnc(Nc3ccc(N4CCN(C)CC4)cc3)nc2n1-c1cccc(C(C)(C)O)n1 [AZD1775] + O=C(c1cc(Cc2n[nH]c(=O)c3ccccc23)ccc1F)N1CCN(C(=O)C2CC2)CC1 [Olaparib] (first compound max 1 µM, partner max 10 µM)

-0.0391
0.0093

* * *

System: HOS (Osteosarcoma)
Assay: Bliss excess, mean over the matrix (fraction); higher = more synergy
QUANTITY_NAME: Bliss excess
Give bare numbers.

COMPOUND | TESTED_SYSTEM | Bliss excess
CC1(C)CCC(CN2CCN(c3ccc(C(=O)NS(=O)(=O)c4ccc(NCC5CCOCC5)c([N+](=O)[O-])c4)c(Oc4cnc5[nH]ccc5c4)c3)CC2)=C(c2ccc(Cl)cc2)C1 [Venetoclax] + C=CCn1c(=O)c2cnc(Nc3ccc(N4CCN(C)CC4)cc3)nc2n1-c1cccc(C(C)(C)O)n1 [AZD1775] (first compound max 1 µM, partner max 1 µM) | HOS (Osteosarcoma) | -0.0335
COc1nnc2ccc(N3CCC(c4ccc(OCCN5CCN(C)C(=O)[C@H]5C)cc4)CC3)nn12 [AZD5153] + CC1(C)CCC(CN2CCN(c3ccc(C(=O)NS(=O)(=O)c4ccc(NCC5CCOCC5)c([N+](=O)[O-])c4)c(Oc4cnc5[nH]ccc5c4)c3)CC2)=C(c2ccc(Cl)cc2)C1 [Venetoclax] (first compound max 1 µM, 7x7, partner max 1 µM) | HOS (Osteosarcoma) | -0.0508

Quick one: Bliss excess of COc1cccc(OCCCN)c1-c1cc(Nc2cnc(C#N)cn2)n[nH]1 [Prexasertib] + CN(C)CCCOc1ccc(-c2ccc3ncc4c(c3c2)n(C2CCOCC2)c(=O)n4C)cn1 [AZD0156] (first compound max 1 µM, 7x7, partner max 1 µM) ? -0.0434

* * *

System: OVCA420 (Ovarian Carcinoma)
Assay: Bliss excess, mean over the matrix (fraction); higher = more synergy
Can you tell me Bliss excess for the items I'm about to list?
One number for each entry.

MOLECULE | Bliss excess
CC(=O)c1c(C)c2cnc(Nc3ccc(N4CCNCC4)cn3)nc2n(C2CCCC2)c1=O [Palbociclib] + Cn1cnc2c(F)c(Nc3ccc(Br)cc3Cl)c(C(=O)NOCCO)cc21 [Selumetinib] (first compound max 10 µM, 7x7, partner max 10 µM) | -0.0157

Field: next molecule
Quick one: Bliss excess of C=CCn1c(=O)c2cnc(Nc3ccc(N4CCN(C)CC4)cc3)nc2n1-c1cccc(C(C)(C)O)n1 [AZD1775] + O=C(c1cc(Cc2n[nH]c(=O)c3ccccc23)ccc1F)N1CCN(C(=O)C2CC2)CC1 [Olaparib] (first compound max 1 µM, partner max 10 µM) ? 0.0916

* * *

Tested on: KURAMOCHI (Ovarian Carcinoma)
Assay: combination Emax (second highest fraction inhibited in the dose matrix, 72 h); higher = more inhibition; extreme values may be limits of the assay
Could you label it Met if measured combination Emax is 0.7 or higher, and Not met otherwise?

Study these solved cases before continuing.
COMPOUND | CATEGORY_LABEL
CN(CCO)CC[C@H](CSc1ccccc1)Nc1ccc(S(=O)(=O)NC(=O)c2ccc(N3CCC([C@@H](O)c4ccccc4-c4ccc(Cl)cc4)CC3)cc2)cc1S(=O)(=O)C(F)(F)F [AZD4320] + C=CCn1c(=O)c2cnc(Nc3ccc(N4CCN(C)CC4)cc3)nc2n1-c1cccc(C(C)(C)O)n1 [AZD1775] (first compound max 1 µM, partner max 1 µM) | Met
C[C@@H]1COCCN1c1cc(C2([S@](C)(=N)=O)CC2)nc(-c2ccnc3[nH]ccc23)n1 [AZD6738] + Nc1ccn([C@@H]2O[C@H](CO)[C@@H](O)C2(F)F)c(=O)n1 [Gemcitabine] (first compound max 10 µM, 7x7, partner max 0.3 µM) | Not met
CN(CCO)CC[C@H](CSc1ccccc1)Nc1ccc(S(=O)(=O)NC(=O)c2ccc(N3CCC([C@@H](O)c4ccccc4-c4ccc(Cl)cc4)CC3)cc2)cc1S(=O)(=O)C(F)(F)F [AZD4320] + C1CN(CCC1(C(=O)N[C@@H](CCO)C2=CC=C(C=C2)Cl)N)C3=NC=NC4=C3C=CN4 [Capivasertib] (first compound max 1 µM, 7x7, partner max 3 µM) | Not met
COc1cc2c(cc1OCCCCCOc1cc3c(cc1OC)C(=O)N1C=C(C)C[C@H]1C=N3)N=C[C@@H]1CC(C)=CN1C2=O [SG3199] + O=C(c1cc(Cc2n[nH]c(=O)c3ccccc23)ccc1F)N1CCN(C(=O)C2CC2)CC1 [Olaparib] (first compound max 0.001 µM, 7x7, partner max 10 µM) | Not met
CN(C)CCCOc1ccc(-c2ccc3ncc4c(c3c2)n(C2CCOCC2)c(=O)n4C)cn1 [AZD0156] + C[C@@H]1COCCN1C2=NC(=NC(=C2)C3(CC3)[S@](=N)(=O)C)C4=C5C=CNC5=NC=C4 [AZD6738] (first compound max 1 µM, 7x7, partner max 10 µM) | Not met

Given CC1(C)CCC(CN2CCN(c3ccc(C(=O)NS(=O)(=O)c4ccc(NCC5CCOCC5)c([N+](=O)[O-])c4)c(Oc4cnc5[nH]ccc5c4)c3)CC2)=C(c2ccc(Cl)cc2)C1 [Venetoclax] + Cn1cnc2c(F)c(Nc3ccc(Br)cc3Cl)c(C(=O)NOCCO)cc21 [Selumetinib] (first compound max 1 µM, 7x7, partner max 3 µM) , state whether its combination Emax is at least 0.7. Not met

* * *

Test system: KURAMOCHI (Ovarian Carcinoma)
Test: Bliss excess, mean over the matrix (fraction); higher = more synergy
Can you tell me Bliss excess for the items I'm about to list?
Numbers only.

COMPOUND | Bliss excess
NC1(C(=O)N[C@@H](CCO)c2ccc(Cl)cc2)CCN(c2ncnc3[nH]ccc23)CC1 [Capivasertib] + C[C@@H]1COCCN1C2=NC(=NC(=C2)C3(CC3)[S@](=N)(=O)C)C4=C5C=CNC5=NC=C4 [AZD6738] (first compound max 10 µM, 7x7, partner max 10 µM) | -0.0376
COc1cccc(OCCCN)c1-c1cc(Nc2cnc(C#N)cn2)n[nH]1 [Prexasertib] + Cc1cc2ncnn2cc1Nc1ncc2c(n1)n(C1CCOCC1)c(=O)n2C [AZD7648] (first compound max 1 µM, 7x7, partner max 10 µM) | -0.0628
COc1cccc(OCCCN)c1-c1cc(Nc2cnc(C#N)cn2)n[nH]1 [Prexasertib] + CN(C)CCCOc1ccc(-c2ccc3ncc4c(c3c2)n(C2CCOCC2)c(=O)n4C)cn1 [AZD0156] (first compound max 1 µM, 7x7, partner max 1 µM) | -0.0425

Quick one: Bliss excess of NC1(C(=O)N[C@@H](CCO)c2ccc(Cl)cc2)CCN(c2ncnc3[nH]ccc23)CC1 [Capivasertib] + Cn1cnc2c(F)c(Nc3ccc(Br)cc3Cl)c(C(=O)NOCCO)cc21 [Selumetinib] (first compound max 10 µM, 7x7, partner max 10 µM) ? 0.0079

* * *

Can you tell me combination Emax for the items I'm about to list?
Tested on: KELLY (Neuroblastoma)
Assay: combination Emax (second highest fraction inhibited in the dose matrix, 72 h); higher = more inhibition; extreme values may be limits of the assay

List reported combination Emax for each of these molecules:
1. Cc1c2c(nn1C)CSCc1cc(n(C)n1)CSc1cc(c3ccccc3c1)OCCCc1c(C(=O)O)n(C)c3c-2c(Cl)ccc13 [AZD5991] + C1CN(CCC1(C(=O)N[C@@H](CCO)C2=CC=C(C=C2)Cl)N)C3=NC=NC4=C3C=CN4 [Capivasertib] (first compound max 1 µM, 7x7, partner max 3 µM)
2. COc1cccc(OCCCN)c1-c1cc(Nc2cnc(C#N)cn2)n[nH]1 [Prexasertib] + CN(C)CCCOc1ccc(-c2ccc3ncc4c(c3c2)n(C2CCOCC2)c(=O)n4C)cn1 [AZD0156] (first compound max 1 µM, 7x7, partner max 1 µM)

[0.676, 1]

List reported combination Emax for each of these molecules:
1. CN(CCO)CC[C@H](CSc1ccccc1)Nc1ccc(S(=O)(=O)NC(=O)c2ccc(N3CCC([C@@H](O)c4ccccc4-c4ccc(Cl)cc4)CC3)cc2)cc1S(=O)(=O)C(F)(F)F [AZD4320] + Cn1cnc2c(F)c(Nc3ccc(Br)cc3Cl)c(C(=O)NOCCO)cc21 [Selumetinib] (first compound max 1 µM, 7x7, partner max 3 µM)
2. C[C@@H]1COCCN1c1cc(C2([S@](C)(=N)=O)CC2)nc(-c2ccnc3[nH]ccc23)n1 [AZD6738] + C1CC(C1)(C(=O)[O-])C(=O)[O-].N.N.[Pt+2] [Carboplatin] (first compound max 10 µM, 7x7, partner max 10 µM)
3. Cc1c2c(nn1C)CSCc1cc(n(C)n1)CSc1cc(c3ccccc3c1)OCCCc1c(C(=O)O)n(C)c3c-2c(Cl)ccc13 [AZD5991] + CC(=O)O[C@H]1C(=O)[C@@]2(C)[C@H]([C@H](OC(=O)c3ccccc3)[C@]3(O)C[C@H](OC(=O)[C@H](O)[C@@H](NC(=O)c4ccccc4)c4ccccc4)C(C)=C1C3(C)C)[C@]1(OC(C)=O)CO[C@@H]1C[C@@H]2O [Paclitaxel] (first compound max 1 µM, 7x7, partner max 3 µM)
4. CS(=O)(=O)CCNCc1ccc(-c2ccc3ncnc(Nc4ccc(OCc5cccc(F)c5)c(Cl)c4)c3c2)o1 [Lapatinib] + Cn1cnc2c(F)c(Nc3ccc(Br)cc3Cl)c(C(=O)NOCCO)cc21 [Selumetinib] (first compound max 10 µM, 7x7, partner max 10 µM)
5. CN(CCO)CC[C@H](CSc1ccccc1)Nc1ccc(S(=O)(=O)NC(=O)c2ccc(N3CCC([C@@H](O)c4ccccc4-c4ccc(Cl)cc4)CC3)cc2)cc1S(=O)(=O)C(F)(F)F [AZD4320] + CN(C)CCCOc1ccc(-c2ccc3ncc4c(c3c2)n(C2CCOCC2)c(=O)n4C)cn1 [AZD0156] (first compound max 1 µM, 7x7, partner max 1 µM)
6. Cn1cnc2c(F)c(Nc3ccc(Br)cc3Cl)c(C(=O)NOCCO)cc21 [Selumetinib] + CC(C)n1c(=O)n(C)c2cnc3cc(F)c(-c4ccc(OCCCN5CCCCC5)nc4)cc3c21 [AZD1390] (first compound max 10 µM, 7x7, partner max 0.3 µM)
7. Cn1cnc2c(F)c(Nc3ccc(Br)cc3Cl)c(C(=O)NOCCO)cc21 [Selumetinib] + C[C@@H]1COCCN1C2=NC(=NC(=C2)C3(CC3)[S@](=N)(=O)C)C4=C5C=CNC5=NC=C4 [AZD6738] (first compound max 10 µM, 7x7, partner max 10 µM)
8. C=CCn1c(=O)c2cnc(Nc3ccc(N4CCN(C)CC4)cc3)nc2n1-c1cccc(C(C)(C)O)n1 [AZD1775] + Nc1ccn([C@@H]2O[C@H](CO)[C@@H](O)C2(F)F)c(=O)n1 [Gemcitabine] (first compound max 1 µM, partner max 0.3 µM)

0.737
0.944
1
0.936
0.597
0.22
0.952
1

List reported combination Emax for each of these molecules:
1. CC(=O)Nc1cccc(-n2c(=O)n(C3CC3)c(=O)c3c(Nc4ccc(I)cc4F)n(C)c(=O)c(C)c32)c1 [Trametinib] + Cc1nc(-c2cn3c(n2)-c2ccc(-c4cnn(C(C)(C)C(N)=O)c4)cc2OCC3)n(C(C)C)n1 [Taselisib] (first compound max 1 µM, 7x7, partner max 10 µM)
2. CN(CCO)CC[C@H](CSc1ccccc1)Nc1ccc(S(=O)(=O)NC(=O)c2ccc(N3CCC([C@@H](O)c4ccccc4-c4ccc(Cl)cc4)CC3)cc2)cc1S(=O)(=O)C(F)(F)F [AZD4320] + CC(=O)O[C@H]1C(=O)[C@@]2(C)[C@H]([C@H](OC(=O)c3ccccc3)[C@]3(O)C[C@H](OC(=O)[C@H](O)[C@@H](NC(=O)c4ccccc4)c4ccccc4)C(C)=C1C3(C)C)[C@]1(OC(C)=O)CO[C@@H]1C[C@@H]2O [Paclitaxel] (first compound max 1 µM, 7x7, partner max 3 µM)

[0.47, 1]
